# Test system: SGC-7901
# protocol details: MTT cytotoxicity assay
# Assay type: cell-based, human
# settings: 48 h drug exposure
# Protocol: The results reveal that the steric hindrance plays a significant role in the cytotoxicity of complex 3. […] In vitro cytotoxicity of the platinum compounds against human hepatocellular carcinoma (HepG-2), gastric carcinoma (SGC-7901), non-small-cell lung cancer (A549), and colorectal cancer (HCT-116) cell lines were measured by the MTT assays. […] The cell viability was evaluated by measurement of the absorbance at 490 nm, using an Absorbance Reader (BioRad). […]
Please respond with reported IC50 for every item in the list.
// note: answer is a bare numeric in µM

Prompt line: Specify reported IC50 for the compound shown: CC(C)C[NH+]1[C@@H]2CCCC[C@H]2[NH+](CC(C)C)[Pt-2]1([Cl])[Cl] (some centres unmarked)
Response line: 44.6

Prompt line: Tell me measured IC50 for O=C1[O][Pt]2([NH][C@@H]3CCCC[C@H]3[NH]2)[O]C1=O [Oxaliplatin, oxaliplatin, reference compound] please.
Response line: 24.2

Prompt line: Let me know recorded IC50 for CC(C)C[NH+]1[C@@H]2CCCC[C@H]2[NH+](CC(C)C)[Pt-2]12[O]C(=O)CC(=O)[O]2 (some centres unmarked) , thanks.
Response line: 38.6

---

# System: HepG2
# protocol details: MTT cytotoxicity assay
# Type: cell-based, human
# settings: 48 h drug exposure
Can you tell me IC50 for the items I'm about to list?
Numbers only; they are read as µM.

Prompt line: Look up HepG2 data: IC50 of O=C1[O][Pt]2([NH][C@@H]3CCCC[C@H]3[NH]2)[O]C1=O [Oxaliplatin, oxaliplatin, reference compound] , then report it.
Response line: 16.6

Prompt line: Specify IC50 for CC(C)C[NH+]1[C@@H]2CCCC[C@H]2[NH+](CC(C)C)[Pt-2]12[O]C(=O)CC(=O)[O]2 (stereo partly drawn) , system HepG2.
Response line: 52.9

Prompt line: // output IC50; input CC(C)C[NH+]1[C@@H]2CCCC[C@H]2[NH+](CC(C)C)[Pt-2]1([Cl])[Cl] (stereo partly drawn) ; system HepG2
Response line: 34.1

---

Provide the reported IC50 of each item.
# System: HepG2
# protocol details: MTT cytotoxicity assay
# Assay type: cell-based, human
# settings: 48 h drug exposure

Prompt line: Look up HepG2 data: IC50 of CC(C)CN[C@@H]1CCCC[C@H]1N.O=C([O-])CC(=O)[O-].[Pt+2] [Complex 3a, reference compound] , then report it.
Response line: > 100 µM

Prompt line: Retrieve IC50 on HepG2; query CC(C)C[NH+]1[C@@H]2CCCC[C@H]2[NH+](CC(C)C)[Pt-2]12[O]C(=O)C(=O)[O]2 (stereo partly drawn)
Response line: > 100 µM

Prompt line: Provide IC50, system HepG2, entry CC(C)C[NH+]1[C@@H]2CCCC[C@H]2[NH+](CC(C)C)[Pt-2]12[O]C(=O)C1(CCC1)C(=O)[O]2 (stereo partly drawn)
Response line: > 100 µM
